Test: Oral bioavailability in Sprague-Dawley rat at 3 mg/kg
Assay type: ADME, organism-based
Conditions: in vivo
Metric Name: bioavailability (%)
Write the value in % as a bare number.

## Task Quick check: bioavailability of OC[C@H]1O[C@@H](c2cc(Cc3cc4cccccc-4c3)ccc2O)[C@H](O)[C@@H](O)[C@@H]1O [YM-543 FREE ACID] ?
## Result 29

----------
Assay: Ratio of drug level in kidney to plasma in Sprague-Dawley rat at 1 mg/kg, iv and 3 mg/kg, po
Assay type: ADME, organism-based
Metric Name: Kp

## Task Quick check: Kp of OC[C@H]1O[C@@H](c2cc(Cc3cc4cccccc-4c3)ccc2O)[C@H](O)[C@@H](O)[C@@H]1O [YM-543 FREE ACID] ?
## Result 23

----------
Organism: Homo sapiens
Test: Selectivity ratio of IC50 for human SGLT1 to IC50 for human SGLT2
Metric Name: Ratio IC50
// no unit, no text: just the number

Test Smiles	Ratio IC50
OC[C@H]1O[C@@H](c2ccc(F)c(Cc3cc4cccccc-4c3)c2)[C@H](O)[C@@H](O)[C@@H]1O	610

API: the following record is the query input.
## Task Quick check: Ratio IC50 of OC[C@H]1O[C@@H](c2cccc(Cc3cc4cccccc-4c3)c2)[C@H](O)[C@@H](O)[C@@H]1O ?
## Result 590
